Tested on: MDA-MB-435
Assay: In vitro cytotoxicity against human breast MDA-MB-435 cells.
Assay type: functional
Mark True for GI50 under 10 µM, False if at or over.

As a guide, the following entries are already answered.
O=C(NCCc1ccc(Cl)cc1)c1cc(NCc2cc(O)ccc2O)ccc1O; False
O=C(NCCCc1ccccc1)c1cc(NCc2cc(O)ccc2O)ccc1O; False
O=C(NCCc1ccc(F)cc1)c1cc(NCc2cc(O)ccc2O)ccc1O; False
COc1ccc(CCNC(=O)c2cc(NCc3cc(O)ccc3O)ccc2O)cc1; False
O=C(NCCc1ccccc1)c1ccc(NCc2cc(O)ccc2O)cc1; True
CCCCCCNC(=O)c1cc(NCc2cc(O)ccc2O)ccc1O; False
O=C(NCc1ccccc1)c1cc(NCc2cc(O)ccc2O)ccc1O; False
O=C(NCCN1CCOCC1)c1cc(NCc2cc(O)ccc2O)ccc1O; False

Consider the compound O=C(NC1CCc2ccccc2C1)c1cc(NCc2cc(O)ccc2O)ccc1O (configuration not stated) . Is its GI50 strictly less than 10 µM? True

Consider the compound O=C(NCCc1ccccn1)c1cc(NCc2cc(O)ccc2O)ccc1O . Is its GI50 strictly less than 10 µM? False

Consider the compound O=C(NCCc1ccccc1)c1cccc(NCc2cc(O)ccc2O)c1 . Is its GI50 strictly less than 10 µM? False
